# ASSAYED_TARGET: CB1 cannabinoid receptor (Rattus norvegicus, UniProt P20272)
# Construct: membranes were prepared from rat forebrain membranes; from tissue; host or cells: rat forebrain membranes
# Sequence (P20272 whole entry): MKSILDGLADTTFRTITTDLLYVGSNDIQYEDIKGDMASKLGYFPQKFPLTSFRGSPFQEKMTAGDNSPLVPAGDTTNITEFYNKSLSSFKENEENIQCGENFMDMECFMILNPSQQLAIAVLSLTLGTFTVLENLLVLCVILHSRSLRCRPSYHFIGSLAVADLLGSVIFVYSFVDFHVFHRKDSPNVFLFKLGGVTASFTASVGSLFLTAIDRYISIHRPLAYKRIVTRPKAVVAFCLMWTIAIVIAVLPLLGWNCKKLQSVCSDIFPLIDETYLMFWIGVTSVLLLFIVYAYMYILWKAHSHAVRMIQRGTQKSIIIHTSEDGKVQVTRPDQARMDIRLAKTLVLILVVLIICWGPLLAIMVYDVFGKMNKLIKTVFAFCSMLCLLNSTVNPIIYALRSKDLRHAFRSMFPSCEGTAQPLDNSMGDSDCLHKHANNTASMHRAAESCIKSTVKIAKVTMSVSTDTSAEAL
# PROCEDURE_SUMMARY: biochemical
# Assay type: binding
# TEST_SETTINGS: Receptor Affinities Ki (nM) CB1, Table 10; rat forebrain membranes
Field: Ki. Provide a value for each of the compounds that follow.
Answer by giving the amount and then stating its unit.

IN: # return recorded Ki for entry `Cc1c(C(=O)NN2CCCCC2)nn(-c2ccc(Cl)cc2Cl)c1-c1ccc(C#Cc2ccccn2)cc1`
OUT: 50 nM

IN: Report measured Ki; entry is `Cc1c(C(=O)NN2CCCCC2)nn(-c2ccc(Cl)cc2Cl)c1-c1ccc(C#Cc2ccncc2)cc1`
OUT: 8 nM

IN: Return the recorded Ki value; entry: `Cc1c(C(=O)NN2CCCCC2)nn(-c2ccc(Cl)cc2Cl)c1-c1ccc(C#CC2(O)CCCCC2)cc1`
OUT: 20 nM

IN: Determine from records and report Ki for `Cc1c(C(=O)NN2CCCCC2)nn(-c2ccc(Cl)cc2Cl)c1-c1ccc(C#CCN(C)C)cc1`
OUT: 51 nM

---

# ASSAYED_TARGET: CB1 cannabinoid receptor (Rattus norvegicus, UniProt P20272)
# Construct: membranes were prepared from rat forebrain membranes; from tissue; host or cells: rat forebrain membranes
# PROCEDURE_SUMMARY: biochemical
# Type: binding
# TEST_SETTINGS: Receptor Affinities Ki (nM) CB1, Table 8; rat forebrain membranes
ASSAY_METRIC: Ki (nM)
Just the number in nM, nothing appended.

IN: Provide Ki, system CB1 cannabinoid receptor (Rattus norvegicus, UniProt P20272), entry `Cc1c(C(=O)N(C)C2CCCCC2)nc(-c2ccc(Cl)cc2Cl)n1-c1ccc(C#CCN=[N+]=[N-])cc1`
OUT: 1

IN: Provide the reported Ki (system: CB1 cannabinoid receptor (Rattus norvegicus, UniProt P20272)) for `O=C(NN1CCCCC1)c1nn(-c2ccc(Cl)cc2Cl)c(-c2ccc(C#CCCO)cc2)c1CO`
OUT: 16

IN: Please tell me the measured Ki for `Cc1c(C(=O)N(C)C2CCCCC2)nc(-c2ccc(Cl)cc2Cl)n1-c1ccc(C#CCCO)cc1` ; system: CB1 cannabinoid receptor (Rattus norvegicus, UniProt P20272).
OUT: 12

IN: Give Ki only, for `Cc1c(C(=O)NN2CCCCC2)nn(-c2ccc(Cl)cc2Cl)c1-c1ccc(C#CCCCCO)cc1` , using CB1 cannabinoid receptor (Rattus norvegicus, UniProt P20272) data.
OUT: 3

IN: Send back CB1 cannabinoid receptor (Rattus norvegicus, UniProt P20272) Ki of `Cc1c(C(=O)NN2CCCCC2)nn(-c2ccc(Cl)cc2Cl)c1-c1ccc(C#CCCCO)cc1` only.
OUT: 2

IN: Write down measured Ki (CB1 cannabinoid receptor (Rattus norvegicus, UniProt P20272)) for this compound. Cc1c(C(=O)NN2CC3CCCC3C2)nn(-c2ccc(Cl)cc2Cl)c1-c1ccc(C#CCCO)cc1 (stereo not shown)
OUT: 7

IN: Report measured Ki on CB1 cannabinoid receptor (Rattus norvegicus, UniProt P20272); entry: `N#CCCC#Cc1ccc(-c2c(CO)c(C(=O)NN3CCCCC3)nn2-c2ccc(Cl)cc2Cl)cc1`
OUT: 6

---

# ASSAYED_TARGET: CB1 cannabinoid receptor (Rattus norvegicus, UniProt P20272)
# Construct: membranes were prepared from rat forebrain membranes; from tissue; host or cells: rat forebrain membranes
# PROCEDURE_SUMMARY: biochemical
# Assay type: binding
# TEST_SETTINGS: Receptor Affinities Ki (nM) CB1, Table 10; rat forebrain membranes
Assign Ki to each entry below.

IN: Report its Ki with CB1 cannabinoid receptor (Rattus norvegicus, UniProt P20272) as the test system: `Cc1c(C(=O)NN2CCCCC2)nn(-c2ccc(Cl)cc2Cl)c1-c1ccc(C#Cc2cccnc2)cc1`
OUT: 15 nM

IN: Provide the reported Ki (system: CB1 cannabinoid receptor (Rattus norvegicus, UniProt P20272)) for `Cc1c(C(=O)NN2CCCCC2)nn(-c2ccc(Cl)cc2Cl)c1-c1ccc(C#CC2CC2)cc1`
OUT: 12 nM

IN: Under CB1 cannabinoid receptor (Rattus norvegicus, UniProt P20272): report Ki of `Cc1c(C(=O)NN2CCCCC2)nn(-c2ccc(Cl)cc2Cl)c1-c1ccc(C#CCN(C)C)cc1.Cl` .
OUT: 30 nM

IN: Give the observed Ki of `Cc1c(C(=O)NN2CCCCC2)nn(-c2ccc(Cl)cc2Cl)c1-c1ccc(C#CC2(O)CCCC2)cc1` for CB1 cannabinoid receptor (Rattus norvegicus, UniProt P20272).
OUT: 9 nM
